I'd be grateful if you could share measured RP-LC retention time for these entries.
method_description: gradient 5% acetonitrile 3 min, to 50% in 2 min, to 85% in 15 min, held 3 min, 100 µL/min
applied_conditions: column: Zorbax Extend-C18 2.1 x 50 mm; eluents: water / acetonitrile, 0.1% formic acid
Express your answer as a number followed by its unit.

I'd like to know its RP-LC retention time. The molecule in question is `COc1ccc(C(=O)Nc2cnc(N3CCOCC3)nc2)cc1`
618 s

I'd like to know its RP-LC retention time. The molecule in question is `COc1ccc(-c2nc(-c3cn(Cc4ccc(F)cc4)nn3)no2)c(OC)c1`
940 s

I'd like to know its RP-LC retention time. The molecule in question is `CC(=O)Oc1ccccc1C(=O)N1CCCc2ccccc21`
868 s

I'd like to know its RP-LC retention time. The molecule in question is `CC(C)c1nc2cccnc2n1CCN1CCN(C(=O)Nc2ccc(Br)cc2F)CC1`
632 s

I'd like to know its RP-LC retention time. The molecule in question is Cc1ccc(C(C)NC(=O)c2ccc3c(c2)nc2n3CCN(C(C)C)C2=O)c(C)c1 (stereo not given)
786 s

I'd like to know its RP-LC retention time. The molecule in question is `O=C(Nc1ccccc1)N1CCc2nnc(C3CC3)n2CC1`
596 s

I'd like to know its RP-LC retention time. The molecule in question is `Cc1sc(-c2cc(C(F)(F)F)on2)cc1S(=O)(=O)NCc1ccc(F)cc1`
1160 s

I'd like to know its RP-LC retention time. The molecule in question is `Cc1cccc(NC(=O)Cn2c(C(C)C)nc3c(c2=O)CCN(Cc2ccccc2)C3)c1`
728 s

I'd like to know its RP-LC retention time. The molecule in question is `O=C(NCCCN1CCCC1)c1ccc2c(c1)nnn2Cc1ccccc1`
628 s

I'd like to know its RP-LC retention time. The molecule in question is O=C1NCCc2c(OCC(=O)N3N=C(c4cccs4)CC3c3ccc(F)cc3)cccc21 (stereo not given)
787 s

I'd like to know its RP-LC retention time. The molecule in question is `O=C(c1cc(C2CC2)[nH]n1)N1CCN(c2ccc(Cl)cc2)CC1`
837 s

I'd like to know its RP-LC retention time. The molecule in question is `COc1cc2ncc(C#N)c(N3CCC(C(=O)Nc4cccc(Cl)c4)CC3)c2cc1OC`
816 s

I'd like to know its RP-LC retention time. The molecule in question is O=C(NC1CCSC1=O)c1ccc(-n2cccn2)nn1 (stereo not given)
657 s

I'd like to know its RP-LC retention time. The molecule in question is `CCCc1noc(-c2nc(-c3ccccc3F)no2)n1`
1090 s

I'd like to know its RP-LC retention time. The molecule in question is CC(C)C(=O)NCC12CCCC=C1N(C)C(=O)CC2 (stereo not given)
660 s

I'd like to know its RP-LC retention time. The molecule in question is `COc1ccc(NC(=O)C2CCN(S(=O)(=O)c3cc(-c4noc(C5CC5)n4)cs3)CC2)cc1`
960 s

I'd like to know its RP-LC retention time. The molecule in question is `CCOC(=O)Cc1ccc(NC(=O)Nc2cccn3cnnc23)cc1`
698 s

I'd like to know its RP-LC retention time. The molecule in question is `CC(C)n1cnc(S(=O)(=O)N2CCC(C(=O)Nc3ccc4c(c3)OCO4)CC2)c1`
722 s

I'd like to know its RP-LC retention time. The molecule in question is CCC1CCCCN1Cc1ccc(CNC(=O)c2c(C)oc3c2C2=NCCN2C=N3)o1 (stereo not given)
710 s

I'd like to know its RP-LC retention time. The molecule in question is `Cc1ccc(-c2ccc3nn(Cc4cccc(Br)c4)c(=O)n3n2)cc1C`
1010 s
